Tested on: Herpes simplex II virus
Assay: Back titration plaque assay: PFU counts at stated amounts of compound under test and arginine
Type: cell-based, Herpes simplex II virus (BSC cells)
Conditions: compound 25 μg/ml; arginine 10 μg/ml
Protocol: The following experiments were conducted by back titration: Herpes simplex II virus from laboratory stocks was used. BSC cells were grown to confluence in Eagles medium with 15% fetal calf serum, 150 units per milliliter of penicillin and 100 micrograms per milliliter of streptomycin. […] The cells were then incubated at 37° C. until the plaques were easily counted, usually 40 t 72 hours. the cells were then washed two times with PBS and then fixed with 10% H2CO and a 2% sodium acetate. […]
MEASURE NAME: P.F.U. Count

Below, each entry is followed by its recorded P.F.U. Count result.
CC(CN)CC[C@H](N)C(=O)O (some centres unmarked)	6.5 × 10^4
NCCCCCC(N)C(=O)O (centres unmarked) [drawing 17]	3.7 × 10^3
CC(N)CCCC(N)C(=O)O (centres unmarked)	2.1 × 10^3

Short answer for CC(CCN)CC(N)C(=O)O (centres unmarked) : P.F.U. Count was 8.7 × 10^4

// sample CC(N)CCCCC(N)C(=O)O (centres unmarked) [drawing 18] , its P.F.U. Count was 3.7 × 10^3

###

Tested on: Herpes simplex II virus
Test: Back titration plaque assay: PFU counts at stated amounts of compound under test and arginine
Format: cell-based, Herpes simplex II virus (BSC cells)
Conditions: compound 25 μg/ml; arginine 0 μg/ml
Parameter P.F.U. Count: see the listing below.
Answer with a number only.

Known results for compounds:
CC(N)CCCCC(N)C(=O)O (centres unmarked) [drawing 18]	0
CC(N)CCCC(N)C(=O)O (centres unmarked)	0
CC(CCN)CC(N)C(=O)O (centres unmarked)	10
NCCCCCC(N)C(=O)O (centres unmarked) [drawing 17]	0

Please look at the following compound next.
# P.F.U. Count of CC(CN)CC[C@H](N)C(=O)O (some centres unmarked) = 0

###

Test system: Herpes simplex II virus
Assay: Back titration plaque assay: PFU counts at stated amounts of compound under test and arginine
Type: cell-based, Herpes simplex II virus (BSC cells)
Conditions: compound 25 μg/ml; arginine 5.0 μg/ml
Protocol: The following experiments were conducted by back titration: Herpes simplex II virus from laboratory stocks was used. BSC cells were grown to confluence in Eagles medium with 15% fetal calf serum, 150 units per milliliter of penicillin and 100 micrograms per milliliter of streptomycin. […] The cells were then incubated at 37° C. until the plaques were easily counted, usually 40 t 72 hours. the cells were then washed two times with PBS and then fixed with 10% H2CO and a 2% sodium acetate. […]
MEASURE NAME: P.F.U. Count
Returns: the value as a bare number; no unit string appended.

NCCCCCC(N)C(=O)O (centres unmarked) [drawing 17]	0
CC(N)CCCCC(N)C(=O)O (centres unmarked) [drawing 18]	0
CC(N)CCCC(N)C(=O)O (centres unmarked) [6-Methyl lysine]	0

Let's switch to this molecule now.
Note to self: P.F.U. Count of CC(CCN)CC(N)C(=O)O (centres unmarked) [4-Methyl lysine] with Herpes simplex II virus was 310

###

Test system: Herpes simplex II virus
Assay: Back titration plaque assay: PFU counts at stated amounts of compound under test and arginine
Format: cell-based, Herpes simplex II virus (BSC cells)
Details: compound 50 μg/ml; arginine 7.5 μg/ml
Below, each entry is listed alongside its reported P.F.U. Count.
Response field accepts a number only; no unit should be typed.

Please review the entries below; each comes with its answer.
CC(CN)CC[C@H](N)C(=O)O (some centres unmarked) [5-Methyl lysine]	190
NCCCCCC(N)C(=O)O (centres unmarked) [drawing 17]	0
CC(N)CCCC(N)C(=O)O (centres unmarked) [6-Methyl lysine]	0

Moving on to the next compound.
For CC(N)CCCCC(N)C(=O)O (centres unmarked) [drawing 18] the compound record lists P.F.U. Count as 0
